# Tested on: Human M17 Neuroblastoma Cells
# ASSAY REMARKS: Neurite outgrowth assay, M17 neuroblastoma cells
# Format: cell-based
# MEASUREMENT CONDITIONS: MAP-2 immunofluorescence; active if greater than mean DMSO-treated control on the same plate
# Protocol: M17 human neuroblastoma cells are cultured in 1:1 ratio of EMEM and Hams's F12 with 1×NEM and 10% FBS. The culture media contains 1×PSN antibiotic and is exchanged every other day, and the cells are passed in log phase near confluence. Cultures are incubated with normal horse serum (1:50; Vector Labs) for about 20 min, rinsed and then incubated with primary antibody, microtubule associated-protein 2 (anti-mouse MAP-2; 1:1000; Chemicon) for about 2 h at about RT. […]
Catalogue of M17 Cell Response readings, one per entry.
MEASURED PROPERTY: M17 Cell Response

• CCC(C)(C)C(=O)C(=O)N1CCC[C@H]1C(=O)NNC(=O)CCc1cccnc1 = 103% of DMSO-treated control
• CCC(C)(C)C(=O)C(=O)N1CCC[C@H]1c1nc(CCc2cccnc2)no1 = 111% of DMSO-treated control
• CCC(C)(C)C(=O)C(=O)N1CCCC[C@H]1C(=O)NNC(=O)CCc1cc(OC)c(OC)c(OC)c1 = 111% of DMSO-treated control
• CCC(C)(C)C(=O)C(=O)N1CCCCC1c1nnc([C@@H]2CCCCN2C(=O)C(=O)C(C)(C)CC)o1 (some centres unmarked) = 118% of DMSO-treated control
• O=C(NCc1cccnc1)c1csc([C@@H]2CCCN2S(=O)(=O)Cc2ccccc2)n1 = 102% of DMSO-treated control
• CCC(C)(C)C(=O)C(=O)N1CCC[C@H]1c1nnc(CCc2cc(OC)c(OC)c(OC)c2)o1 = 106% of DMSO-treated control
• O=C(NCc1cccnc1)c1ncoc1[C@@H]1CCCN1C(=O)OCc1ccccc1 = 103% of DMSO-treated control
• CCC(C)(C)C(=O)C(=O)N1CCC[C@H]1C(=O)NNC(=O)[C@@H]1CCCN1C(=O)C(=O)C(C)(C)CC = 123% of DMSO-treated control
• CCC(C)(C)C(=O)C(=O)N1CCC[C@H]1c1nc(COc2cccnc2)cs1 = 110% of DMSO-treated control
• CCC(C)(C)C(=O)C(=O)N1CCCC[C@H]1C(=O)NNC(=O)[C@@H]1CCCCN1C(=O)C(=O)C(C)(C)CC = 111% of DMSO-treated control
• CCC(C)(C)C(=O)C(=O)N1CCCC[C@H]1c1nnc(CCc2cc(OC)c(OC)c(OC)c2)o1 = 112% of DMSO-treated control
• CCC(C)(C)C(=O)C(=O)N1CCC[C@H]1C(=O)NNC(=O)CCc1cc(OC)c(OC)c(OC)c1 = 106% of DMSO-treated control
• CCC(C)(C)C(=O)C(=O)N1CCC[C@H]1c1nnc(CCc2cccnc2)o1 = 104% of DMSO-treated control
• CCC(C)(C)C(=O)C(=O)N1CCCC[C@H]1c1nnc(CCc2cccnc2)o1 = 105% of DMSO-treated control
